Reported OD492 nm is given for each of the following binders.
# SYSTEM_TESTED: SARS-CoV preparation (Frankfurt 1 strain)
# MEASUREMENT_DESCRIPTION: phage ELISA on coated SARS-CoV preparation, plate 4 (no phage antibody 0.051)

BINDER	DATA_VALUE
SC03-038 (scFv) scFv: AMAEVQLVQSGGGLIQPGGSLRLSCAASGFTVSSNYMSWVRQAPGKGLEWVSIVFSGGSTYYADSVKGRFTISRDNSKNTLYLQMNSLRAEDTAVYYCARDAHRGFGMDVWGQGTTVTVSSGTGGSGGTGSGTGGSTSSELTQDPAVSVALGQTVRITCQGDSLRSYYASWYQQKPGQAPVLVIYGKNNRPSGIPDRFSGSSSGDTASLTITGAQAEDEADYYCNSRDSSGNHWVFGGGTKLTVLGAA	0.314 OD492 nm
SC03-037 (scFv) scFv: AMAKVQLVQSGGGLIQPGGSLRLSCAASGFTVSSNYMSWVRQAPGKGLEWVSIVFSGGSTYYADSVKGRFTISRDNSKNTLYLQMNSLRAEDTAVYYCARDAHRGFGMDVWGQGTTVTVSSGTGGSGGTGSGTGGSTSSELTQDPAVSVALGQTVRITCQGDSLRSYYASWYQQKPGQAPVLVIYGKNNRPSGIPDRFSGSSSGNTASLTITGAQAEDEADYYCNGRDSSGNHWVFGGGTKLTVLGAA	0.287 OD492 nm

Consider now this further binder.
QUERY: Give the reported value of OD492 nm for this record: SC03-044 (scFv) scFv: AMAEVQLVETGGGLVQPGGSLRLSCAASGFTFSSYAMHWVRQAPGKGLEYVSGISSNGGSTYYANSVKGRFTISRDNSKNTLYLQMGSLRAEDMAVYYCARTTNRAFDIWGQGTMVTVSSGTGGSGGTGSGTGGSTDIQMTQSPDSLAVSLGERATINCKSSQSVLYSSNNKNYLAWYQQKPGQPPKLLIYWASTRESGVPDRFRGSGSGTDFTLTISSLQAEDLAVYYCQQYYSTPYSFGQGTKLEIKRAA
RESULT: 0.518 OD492 nm
